test system: GSC7 cells; assay: Nano-Glo Dual-Luciferase Reporter (Nanoglo DLR) assay of enhancer activity, fold change to mCMV; format: cell-based, human; details: expression fold change of the individual enhancer compared to mCMV
reported-property: Fold change (Median) (fold)
Numbers only, in fold.

Solved entries (count: 3):
{"columns": ["molecule", "Fold change (Median) / fold"],
 "data": [
  ["ID1888: enhancer fragment, SEQ ID NO: 23 (nucleic acid) DNA: GACCTTGCCTCTTTCTGGCCTGTGGCCTTTCTCCTCCCCCAGCTGCTGTCTGGCCGCCCCACCCCCAAGTCTCTGCCACAACCAAAGCTCCTTTGTTGCCTCCCCCTGCCCCGGGCCTCTCCACCTGCTGCTAGCTCAATCCCCTCTTTGTGTGGTTGGT", 31.1],
  ["ID0876: enhancer fragment, SEQ ID NO: 8 (nucleic acid) DNA: GAGCAGGCAGTCATTTGGTTCCCTTCTCTGAATGCATTGGCTCTGATCCACGGCGCCTCAGGAAGTGAAAGGGAGCAGGCAGTGAGGCCAAGCCATGAATGTTGGGCCCTTTTCTTAGAAAACAAAGGGTTCACTTTAGGCTAGGAGGAAACATCCGGGG", 91.1],
  ["CSE005: clustered SOX dimer motif enhancer, SEQ ID NO: 41 (nucleic acid) DNA: TCCCTTGGAAAGTGTTCAAATCAAAGCTACCTTTATACCACACTCCTTTGTGTCCTGATGTCCTGAATAGTGAGATTATCGGGTACACCCACCTGTTCCTGCACTTCCTTCCTGCTCAATTTAAATAAACAATGAGCTGTTTTTCTTCTTGACAAAGAGCCAGTCTATACAACAGCAGCAGGAAGATTACTTTCTATCTGTATGCAAACAGATACATAGCTGAGTTCTCTCCAATCCCCGGGAAAAGACCCTTTTAACTAAATGACTTATGCTTCT", 11.5]
]}

Hello, I would appreciate it if you could give Fold change (Median) for each entry below.
1. ID0663: enhancer fragment, SEQ ID NO: 11 (nucleic acid, listed as DNA, chemistry not given here) DNA: ATAAATTCCGATTAGCCAAGGAAGCTCTGAGTCTAAATACCAGCAAAGCTCAGCCCCTGCAAGTGGGGACGAATTATTTGAAAGGTCATCCTAGAGACACTGAACAAAGGGCCTCTAGCAGCT
2. ID3765: enhancer fragment, SEQ ID NO: 21 (nucleic acid) DNA: TTGTCCTGCCTTTGAGAACACTGGAAGGGCACTGAAGGCTGACCAGCATGCACCTCACCCCACCTCCTCTCTGTCTCATCCTCAGCCATCTAAGCGGGAGACTCATCAGGCTTAAATTCTCATTCTTATCCAAGATTCTTCTGCTTCAAATGAG
3. ID1737: enhancer fragment, SEQ ID NO: 10 (nucleic acid) DNA: CAACGTTTTTGGCAGATGCAGCTCTTTCTGAACAGTAAGTCATTGTTGAGTGACATGAATAGGACGAGAGCTACAGAAAATGAAGGTTTCAAAAGATTGTCTAAAACAAAAGTCCTTTCAGTCCCGTATTCAGAGTT

Output:
1. 59.1
2. 31.7
3. 77.1
